Target or system Histamine H3 receptor (Homo sapiens); recorded quantity AC50. Note: assay procedure not described here.
Measured Property: AC50

>>> assay_value("O=C(O)COCCN1CCN(C(c2ccccc2)c2ccc(Cl)cc2)CC1 (configuration not stated)")
"> 10 µM"
>>> assay_value("CN1Cc2c(N)cccc2C(c2ccccc2)C1 (configuration not stated)")
"> 30 µM"
>>> assay_value("Fc1ccc([C@@H]2CCNC[C@H]2COc2ccc3c(c2)OCO3)cc1")
"> 10 µM"
>>> assay_value("S=P(N1CC1)(N1CC1)N1CC1")
"> 30 µM"
>>> assay_value("C[N+](C)(C)CCOP(=O)([O-])OC[C@H](O)CO")
"> 30 µM"
>>> assay_value("CC(=O)Nc1ccc(CC(=O)O)cc1")
"> 30 µM"
>>> assay_value("CN(C)Cc1nnc2n1-c1ccc(Cl)cc1C(c1ccccc1)=NC2")
"> 10 µM"

###

Molecular target: 5-hydroxytryptamine receptor 2B (Homo sapiens, UniProt P41595); note: assay procedure not described here
Sequence (P41595 whole entry): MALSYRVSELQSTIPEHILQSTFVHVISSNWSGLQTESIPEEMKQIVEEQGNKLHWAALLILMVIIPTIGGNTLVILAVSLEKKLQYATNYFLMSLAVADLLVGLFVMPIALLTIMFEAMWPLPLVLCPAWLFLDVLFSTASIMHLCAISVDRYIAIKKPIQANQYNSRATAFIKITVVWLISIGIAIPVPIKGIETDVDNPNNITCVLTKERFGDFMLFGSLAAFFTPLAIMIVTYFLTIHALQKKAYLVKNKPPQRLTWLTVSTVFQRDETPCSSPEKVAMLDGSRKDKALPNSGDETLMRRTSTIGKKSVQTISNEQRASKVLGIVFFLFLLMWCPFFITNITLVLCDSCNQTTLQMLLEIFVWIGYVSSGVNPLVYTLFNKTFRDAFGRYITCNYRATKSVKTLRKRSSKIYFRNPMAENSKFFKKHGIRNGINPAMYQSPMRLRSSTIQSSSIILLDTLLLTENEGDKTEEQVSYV
Format: functional, cell-based
Examples of compounds with documented AC50 follow.
Measured Property: AC50

>>> assay_value("CN(C)CCCN1c2ccccc2CCc2ccccc21")
"5 µM"
>>> assay_value("Fc1ccc([C@@H]2CCNC[C@H]2COc2ccc3c(c2)OCO3)cc1")
"19.1 µM"
>>> assay_value("C[C@@H]1C[C@H]2[C@@H]3C[C@H](F)C4=CC(=O)C=C[C@]4(C)[C@@]3(F)[C@@H](O)C[C@]2(C)[C@@]1(OC(=O)c1ccco1)C(=O)SCF [FLUTICASONE FUROATE]")
"> 10 µM"
>>> assay_value("CCOc1nc2cccc(C(=O)O)c2n1Cc1ccc(-c2ccccc2-c2nnn[nH]2)cc1")
"16 µM"
>>> assay_value("C[N+]1(C)CCC(=C(c2ccccc2)c2ccccc2)CC1")
"29 µM"
>>> assay_value("O=C(O)CCNC(=O)c1ccc(/N=N/c2ccc(O)c(C(=O)O)c2)cc1 [BALSALAZIDE]")
"> 30 µM"
>>> assay_value("CCCNC(=O)NS(=O)(=O)c1ccc(Cl)cc1 [CHLORPROPAMIDE]")
"> 10 µM"
>>> assay_value("CN(CCOc1ccc(CC2SC(=O)NC2=O)cc1)c1ccccn1 (configuration not stated)")
"14 µM"
>>> assay_value("Cc1nc(Nc2ncc(C(=O)Nc3c(C)cccc3Cl)s2)cc(N2CCN(CCO)CC2)n1")
"6.3 µM"
>>> assay_value("COc1ccc2cc(CCC(C)=O)ccc2c1")
"> 10 µM"
>>> assay_value("Oc1ccc(CCNCCCCCCNCCc2ccccc2)cc1O")
"> 30 µM"
>>> assay_value("CC[C@H](C)C(=O)O[C@H]1C[C@@H](C)C=C2C=C[C@H](C)[C@H](CC[C@@H]3C[C@@H](O)CC(=O)O3)[C@H]21")
"23 µM"
>>> assay_value("COC(=O)[C@H]1[C@H]2C[C@@H]3c4[nH]c5cc(OC)ccc5c4CCN3C[C@H]2C[C@@H](OC(=O)c2cc(OC)c(OC)c(OC)c2)[C@@H]1OC")
"> 10 µM"
>>> assay_value("CNC(=C[N+](=O)[O-])NCCSCc1csc(CN(C)C)n1")
"> 10 µM"
>>> assay_value("O=C1OC(OC(=O)c2cccnc2Nc2cccc(C(F)(F)F)c2)c2ccccc21 (configuration not stated) [TALNIFLUMATE]")
"> 30 µM"
>>> assay_value("CCC(=O)O[C@](Cc1ccccc1)(c1ccccc1)[C@H](C)CN(C)C")
"> 10 µM"
>>> assay_value("O=C(O)Cc1ccccc1Oc1ccc(Cl)cc1Cl")
"> 10 µM"
>>> assay_value("COc1ccc(CN2CCN(C(c3ccc(F)cc3)c3ccc(F)cc3)CC2)c(OC)c1OC")
"5.9 µM"
>>> assay_value("CCCCCCCN(CC)CCCC(O)c1ccc(NS(C)(=O)=O)cc1 (configuration not stated) [IBUTILIDE]")
"> 30 µM"
>>> assay_value("C[N+](C)(C)CCOP(=O)(O)OP(=O)([O-])OC[C@H]1O[C@@H](n2ccc(N)nc2=O)[C@H](O)[C@@H]1O")
"> 30 µM"
>>> assay_value("CN[C@@H](C)[C@@H](O)c1ccccc1")
"> 10 µM"
>>> assay_value("CC(C)(Oc1ccc(CCNC(=O)c2ccc(Cl)cc2)cc1)C(=O)O [BEZAFIBRATE]")
"> 10 µM"
>>> assay_value("COc1cc(C(=O)OCc2cccc(COC(=O)c3cc(OC)c(OC)c(OC)c3)n2)cc(OC)c1OC")
"> 30 µM"
>>> assay_value("CCC(=O)O[C@]1(C(=O)CCl)[C@@H](C)C[C@H]2[C@@H]3CCC4=CC(=O)C=C[C@]4(C)[C@@]3(F)[C@@H](O)C[C@@]21C [CLOBETASOL PROPIONATE]")
"> 30 µM"
>>> assay_value("Cc1ccccc1N1C(=O)c2cc(S(N)(=O)=O)c(Cl)cc2NC1C (configuration not stated)")
"> 10 µM"
>>> assay_value("C[C@]12C=CC(=O)C=C1CC[C@@H]1[C@@H]2CC[C@]2(C)OC(=O)CC[C@@H]12")
"> 30 µM"
>>> assay_value("CC(C)N(CCCCOCC(=O)O)c1cnc(-c2ccccc2)c(-c2ccccc2)n1")
"> 30 µM"

###

Target: D(1A) dopamine receptor (Homo sapiens); note: assay procedure not described here
Sequence (P21728 whole entry): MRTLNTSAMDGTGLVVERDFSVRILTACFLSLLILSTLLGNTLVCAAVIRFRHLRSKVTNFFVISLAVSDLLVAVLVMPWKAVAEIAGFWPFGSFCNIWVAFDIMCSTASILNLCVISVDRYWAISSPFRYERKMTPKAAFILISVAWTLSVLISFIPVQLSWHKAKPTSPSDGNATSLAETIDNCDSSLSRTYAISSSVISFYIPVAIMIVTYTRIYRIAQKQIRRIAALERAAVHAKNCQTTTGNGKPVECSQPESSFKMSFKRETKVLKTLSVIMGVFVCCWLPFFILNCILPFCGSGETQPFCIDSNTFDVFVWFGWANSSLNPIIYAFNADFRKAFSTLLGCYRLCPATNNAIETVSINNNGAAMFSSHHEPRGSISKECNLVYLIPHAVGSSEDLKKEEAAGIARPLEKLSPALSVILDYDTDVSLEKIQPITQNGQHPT
Type: functional, cell-based
Listed below: AC50 values for each entry.
Measured Property: AC50

>>> assay_value("OC[C@H]1O[C@@H](n2cnc3c2NC=NC[C@H]3O)C[C@@H]1O")
"> 30 µM"
>>> assay_value("Oc1ccc(CCNCCCCCCNCCc2ccccc2)cc1O")
"23 µM"
>>> assay_value("CCN1CC(CCN2CCOCC2)C(c2ccccc2)(c2ccccc2)C1=O (stereo not given)")
"> 30 µM"
>>> assay_value("Cc1ccnc2c1NC(=O)c1cccnc1N2C1CC1")
"> 10 µM"
>>> assay_value("CN(Cc1cnc2nc(N)nc(N)c2n1)c1ccc(C(=O)N[C@@H](CCC(=O)O)C(=O)O)cc1 [METHOTREXATE]")
"> 10 µM"
>>> assay_value("COc1cc(C(C)=O)ccc1OCCCN1CCC(c2noc3cc(F)ccc23)CC1")
"> 30 µM"
>>> assay_value("COc1cc(C(=O)OCc2cccc(COC(=O)c3cc(OC)c(OC)c(OC)c3)n2)cc(OC)c1OC")
"> 30 µM"
>>> assay_value("COC(=O)[C@H]1[C@H]2C[C@@H]3c4[nH]c5cc(OC)ccc5c4CCN3C[C@H]2C[C@@H](OC(=O)c2cc(OC)c(OC)c(OC)c2)[C@@H]1OC")
"> 10 µM"
>>> assay_value("O=C(c1cc(Cc2n[nH]c(=O)c3ccccc23)ccc1F)N1CCN(C(=O)C2CC2)CC1")
"> 10 µM"
>>> assay_value("C=CCN1CCc2nc(N)sc2CC1 [TALIPEXOLE]")
"> 30 µM"

###

Target: 3',5'-cyclic-AMP phosphodiesterase 4D (Homo sapiens, UniProt Q08499); note: assay procedure not described here
Sequence (Q08499 whole entry): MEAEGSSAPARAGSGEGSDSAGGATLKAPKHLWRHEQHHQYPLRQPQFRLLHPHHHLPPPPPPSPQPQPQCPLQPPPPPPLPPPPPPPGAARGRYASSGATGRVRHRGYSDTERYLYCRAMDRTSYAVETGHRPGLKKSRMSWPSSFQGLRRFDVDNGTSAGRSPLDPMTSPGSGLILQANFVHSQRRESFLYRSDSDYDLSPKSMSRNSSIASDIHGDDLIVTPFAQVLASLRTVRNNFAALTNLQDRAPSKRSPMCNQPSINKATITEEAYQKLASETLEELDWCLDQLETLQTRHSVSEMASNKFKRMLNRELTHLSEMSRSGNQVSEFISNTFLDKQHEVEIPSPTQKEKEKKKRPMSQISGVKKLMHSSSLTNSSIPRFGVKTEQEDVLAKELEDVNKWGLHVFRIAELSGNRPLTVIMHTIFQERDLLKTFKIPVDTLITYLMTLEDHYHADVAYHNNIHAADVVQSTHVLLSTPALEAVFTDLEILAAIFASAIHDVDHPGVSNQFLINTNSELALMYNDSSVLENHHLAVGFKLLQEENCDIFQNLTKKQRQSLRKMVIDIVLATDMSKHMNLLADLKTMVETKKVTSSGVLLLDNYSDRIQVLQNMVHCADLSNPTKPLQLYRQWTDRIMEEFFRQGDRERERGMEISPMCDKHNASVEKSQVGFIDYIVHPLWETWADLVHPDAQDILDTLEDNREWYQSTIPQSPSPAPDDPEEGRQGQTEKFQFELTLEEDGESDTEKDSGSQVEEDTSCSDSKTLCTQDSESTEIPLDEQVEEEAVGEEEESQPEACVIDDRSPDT
Assay type: functional
Measured Property: AC50

>>> assay_value("Cc1cc(C)nc(NS(=O)(=O)c2ccc(N)cc2)n1")
"> 30 µM"
>>> assay_value("CCCCCCCC(=O)CC[C@@H]1[C@@H](C/C=C\\CCCC(=O)OC(C)C)[C@@H](O)C[C@H]1O")
"9.6 µM"
>>> assay_value("CCOC(=O)c1ncn2c1CN(C)C(=O)c1cc(F)ccc1-2")
"> 30 µM"
>>> assay_value("CCC[C@@H]1C[C@@H](C(=O)N[C@@H]([C@H]2O[C@H](SC)[C@H](O)[C@@H](O)[C@H]2O)[C@@H](C)O)N(C)C1")
"> 30 µM"

###

AC50: recorded values
Target: Beta-1 adrenergic receptor (Homo sapiens); note: assay procedure not described here
Sequence (P08588 whole entry): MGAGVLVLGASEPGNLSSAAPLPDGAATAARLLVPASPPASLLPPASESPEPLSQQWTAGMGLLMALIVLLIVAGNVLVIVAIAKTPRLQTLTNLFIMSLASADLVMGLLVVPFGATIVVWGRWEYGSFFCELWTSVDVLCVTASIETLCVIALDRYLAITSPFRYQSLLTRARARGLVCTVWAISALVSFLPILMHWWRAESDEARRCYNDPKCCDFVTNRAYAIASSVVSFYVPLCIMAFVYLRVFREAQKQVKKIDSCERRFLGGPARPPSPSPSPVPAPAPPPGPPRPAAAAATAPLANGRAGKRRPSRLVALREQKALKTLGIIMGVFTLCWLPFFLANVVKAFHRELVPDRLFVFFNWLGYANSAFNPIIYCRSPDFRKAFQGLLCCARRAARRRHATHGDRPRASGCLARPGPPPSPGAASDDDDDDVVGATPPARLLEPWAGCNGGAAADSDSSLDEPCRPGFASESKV
Type: functional
Measured Property: AC50

>>> assay_value("O=C(O)Cc1ccccc1Nc1c(Cl)cccc1Cl")
"> 10 µM"
>>> assay_value("O=C(O)c1ccc(NC(=O)[C@H](Cc2ccc(O)cc2)NC(=O)c2ccccc2)cc1 [BENTIROMIDE]")
"> 10 µM"
>>> assay_value("Cc1ccccc1-n1c(CF)nc2ccc(N)cc2c1=O")
"> 30 µM"
>>> assay_value("C[N+](C)(C)CCOP(=O)([O-])OC[C@H](O)CO")
"> 30 µM"
>>> assay_value("CC(=O)[C@H]1CC[C@H]2[C@@H]3C[C@H](C)C4=CC(=O)CC[C@]4(C)[C@H]3[C@@H](O)C[C@]12C")
"> 10 µM"
>>> assay_value("CC(C)Cc1ccc([C@H](C)C(=O)O)cc1")
"> 30 µM"

###

Measured AC50 of individual entries
Molecular target: UniProt:P08908
Sequence (P08908 whole entry): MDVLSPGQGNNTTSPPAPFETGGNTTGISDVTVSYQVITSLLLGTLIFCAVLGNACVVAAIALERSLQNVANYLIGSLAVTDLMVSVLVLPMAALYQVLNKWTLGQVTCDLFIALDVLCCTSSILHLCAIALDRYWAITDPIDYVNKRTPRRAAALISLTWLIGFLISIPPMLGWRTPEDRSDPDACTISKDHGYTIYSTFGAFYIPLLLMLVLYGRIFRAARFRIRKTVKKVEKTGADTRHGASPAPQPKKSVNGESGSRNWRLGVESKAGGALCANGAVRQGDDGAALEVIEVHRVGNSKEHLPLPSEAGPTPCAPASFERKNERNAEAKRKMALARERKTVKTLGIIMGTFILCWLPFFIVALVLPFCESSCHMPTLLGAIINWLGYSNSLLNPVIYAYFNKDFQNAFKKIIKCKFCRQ
Assay type: functional, cell-based
Measured Property: AC50

>>> assay_value("C[C@]12C=CC(=O)C=C1CC[C@@H]1[C@@H]2CC[C@]2(C)OC(=O)CC[C@@H]12")
"> 30 µM"
>>> assay_value("C[N+](C)(C)CCOP(=O)([O-])OC[C@H](O)CO")
"> 30 µM"
>>> assay_value("CC(C)NC(=N)NC(=N)Nc1ccc(Cl)c(Cl)c1")
"> 30 µM"
>>> assay_value("OC[C@H]1O[C@@H](n2cnc3c2NC=NC[C@H]3O)C[C@@H]1O")
"> 30 µM"
>>> assay_value("O=C(O)c1cccnc1Nc1cccc(C(F)(F)F)c1")
"> 10 µM"
>>> assay_value("CN(C)C/C=C/C(=O)Nc1cc2c(Nc3ccc(F)c(Cl)c3)ncnc2cc1O[C@H]1CCOC1")
"> 30 µM"
>>> assay_value("CCCCCCCN(CC)CCCC(O)c1ccc(NS(C)(=O)=O)cc1 (stereo not given) [IBUTILIDE]")
"> 30 µM"
>>> assay_value("CN(C)CCCN1c2ccccc2CCc2ccccc21")
"> 10 µM"
>>> assay_value("O=c1c(O)c(-c2ccc(O)c(O)c2)oc2cc(O)cc(O)c12")
"> 30 µM"
>>> assay_value("O=C1Nc2ccc(Cl)cc2C(c2ccccc2Cl)=NC1O (stereo not given)")
"> 10 µM"
>>> assay_value("CCCN1CCCC[C@H]1C(=O)Nc1c(C)cccc1C")
"> 30 µM"
>>> assay_value("CCC[C@@H]1C[C@@H](C(=O)N[C@@H]([C@H]2O[C@H](SC)[C@H](O)[C@@H](O)[C@H]2O)[C@@H](C)O)N(C)C1")
"> 30 µM"
>>> assay_value("CC(C(=O)O)c1ccc2oc(-c3ccc(Cl)cc3)nc2c1 (stereo not given)")
"> 30 µM"
>>> assay_value("COC(=O)C1=C(C)NC(C)=C(C(=O)OCCN2CCN(C(c3ccccc3)c3ccccc3)CC2)C1c1cccc([N+](=O)[O-])c1 (stereo not given)")
"> 30 µM"
>>> assay_value("CNC(=C[N+](=O)[O-])NCCSCc1csc(CN(C)C)n1")
"> 10 µM"

From: ChEMBL document CHEMBL5291721
